Hello, the source for this data is patent EP0450097B1, in case you need it.

- Target entity: V₁ receptor (Rattus norvegicus, UniProt P30560)
- Construct: Using rat liver plasma membrane preparations
- Sequence (P30560 whole entry): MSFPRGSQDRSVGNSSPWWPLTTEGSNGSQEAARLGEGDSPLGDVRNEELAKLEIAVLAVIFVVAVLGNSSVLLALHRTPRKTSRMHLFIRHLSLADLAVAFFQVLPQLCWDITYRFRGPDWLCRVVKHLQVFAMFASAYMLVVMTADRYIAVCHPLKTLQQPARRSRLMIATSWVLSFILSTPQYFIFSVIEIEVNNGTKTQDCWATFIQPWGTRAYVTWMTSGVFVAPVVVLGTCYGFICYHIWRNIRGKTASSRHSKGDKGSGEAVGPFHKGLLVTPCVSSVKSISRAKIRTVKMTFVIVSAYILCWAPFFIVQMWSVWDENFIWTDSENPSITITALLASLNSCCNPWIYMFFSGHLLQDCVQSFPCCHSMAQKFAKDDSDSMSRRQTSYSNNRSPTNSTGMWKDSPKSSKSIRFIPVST
- Method: V₁ receptor binding assay ([³H]-Arg-vasopressin, rat liver plasma membrane preparations)
- Experimental context: 37°C for 10 minutes
- Experimental: Using rat liver plasma membrane preparations prepared according to Ichihara's method [cf: Akira Ichihara, J. Bio. […] The amount of [³H]-vasopressin combined with the membrane is measured by liquid scintillation counter and the rate of the inhibitory effect of the test compound is estimated according to the following equation. […] The results are expressed as IC₅₀ values, which is the concentration of the test compound required to achieve the inhibitory effect in the rate of 50 %.
pIC50: −log10 of the molar value.
Short version: pIC50 at least 7 is satisfied, less is not satisfied.

// known answers, use as guide
- Compound: "O=C(CNc1ccccc1Cl)Nc1ccc(C(=O)N2CCCCc3ccccc32)cc1"
  Target entity: "V₁ receptor (Rattus norvegicus, UniProt P30560)"
  Answer label: "satisfied"
- Compound: "Cc1ccccc1NCC(=O)Nc1ccc(C(=O)N2CCCC(N(C)C)c3ccccc32)cc1 (stereo not drawn)"
  Target entity: "V₁ receptor (Rattus norvegicus, UniProt P30560)"
  Answer label: "not satisfied"
- Compound: "Cc1ccccc1C(=O)Nc1ccc(C(=O)N2CCCN(C)c3ccccc32)cc1"
  Target entity: "V₁ receptor (Rattus norvegicus, UniProt P30560)"
  Answer label: "not satisfied"

Qu. Decide: pIC50 of Cc1ccccc1C(=O)Nc1ccc(C(=O)N2CCCC(N(C)C)c3cc(Cl)ccc32)cc1 (stereo not drawn) >= 7?
Ans. not satisfied

Qu. Try this compound next: NC(=O)COc1ccccc1C(=O)Nc1ccc(C(=O)N2CCCCc3ccccc32)cc1
Ans. satisfied

Qu. Try this compound next: CCN(CC(=O)Nc1ccc(C(=O)N2CCCC(NC)c3cc(Cl)ccc32)cc1)c1ccccc1 (stereo not drawn)
Ans. satisfied

Qu. Try this compound next: CC(C)NCCCCOc1ccccc1C(=O)Nc1ccc(C(=O)N2CCCCc3ccccc32)cc1
Ans. satisfied

Qu. Try this compound next: Cc1ccccc1C(=O)Nc1ccc(C(=O)N2CCSCc3ccccc32)cc1
Ans. satisfied

Qu. Try this compound next: NCCCCOc1ccccc1C(=O)Nc1ccc(C(=O)N2CCCCc3ccccc32)cc1
Ans. satisfied

Qu. Try this compound next: Nc1cccc(C(=O)Nc2ccc(C(=O)N3CCCCc4ccccc43)cc2)c1
Ans. not satisfied

Qu. Try this compound next: Cc1ccccc1C(=O)Nc1ccc(C(=O)N2CCCCCc3ccccc32)cc1
Ans. not satisfied

Qu. Try this compound next: CN(C)C1CCCN(C(=O)c2ccc(NC(=O)c3ccccc3Br)cc2)c2ccccc21 (stereo not drawn)
Ans. not satisfied

Qu. Try this compound next: CCN(CC(=O)Nc1ccc(C(=O)N2CCCC(OCC(=O)N(C)C)c3ccccc32)cc1)c1ccccc1 (stereo not drawn)
Ans. satisfied

Qu. Try this compound next: O=C(Nc1ccc(C(=O)N2CCCCc3ccccc32)cc1)c1cccc(C(F)(F)F)c1
Ans. not satisfied
